test: Stability of analytes in rat plasma QC samples under storage conditions; format: in vitro ADME; details: rat plasma, n=6; medium QC: spiked 200 ng/mL glycyrrhizic acid; 100 liquiritin; 20 emodin, gallic acid, ononin, schisandrin, stilbene glycoside; 10 isoliquiritigenin, liquiritigenin, rhein, verbascoside
property.measured: Measured Concentration, -70°C for 14 days (ng/mL)
Output spec: scalar in ng/mL, unitless text.

OC[C@H]1O[C@@H](Oc2c(O)cc(O)cc2/C=C/c2ccc(O)cc2)[C@H](O)[C@@H](O)[C@@H]1O [stilbene glycoside]	20.01
COc1cc2c(c(OC)c1OC)-c1c(cc(OC)c(OC)c1OC)C[C@](C)(O)[C@@H](C)C2 [schisandrin]	17.86
Cc1cc(O)c2c(c1)C(=O)c1cc(O)cc(O)c1C2=O [emodin]	18.79

Measured Concentration, -70°C for 14 days measured on O=C1C[C@@H](c2ccc(O)cc2)Oc2cc(O)ccc21 [liquiritigenin] = 9.26

Measured Concentration, -70°C for 14 days measured on C[C@@H]1O[C@@H](O[C@@H]2[C@@H](O)[C@H](OCCc3ccc(O)c(O)c3)O[C@H](CO)[C@H]2OC(=O)/C=C/c2ccc(O)c(O)c2)[C@H](O)[C@H](O)[C@H]1O [verbascoside] = 9.81

Measured Concentration, -70°C for 14 days measured on O=C(O)c1cc(O)c2c(c1)C(=O)c1cccc(O)c1C2=O [rhein] = 8.71

Measured Concentration, -70°C for 14 days measured on O=C(O)c1cc(O)c(O)c(O)c1 [gallic acid] = 19.26

Measured Concentration, -70°C for 14 days measured on O=C1C[C@@H](c2ccc(O[C@@H]3O[C@H](CO)[C@@H](O)[C@H](O)[C@H]3O)cc2)Oc2cc(O)ccc21 [liquiritin] = 105.05

Measured Concentration, -70°C for 14 days measured on CC1(C)[C@@H](O[C@H]2O[C@H](C(=O)O)[C@@H](O)[C@H](O)[C@H]2O[C@@H]2O[C@H](C(=O)O)[C@@H](O)[C@H](O)[C@H]2O)CC[C@]2(C)[C@H]3C(=O)C=C4[C@@H]5C[C@@](C)(C(=O)O)CC[C@]5(C)CC[C@@]4(C)[C@]3(C)CC[C@@H]12 [glycyrrhizic acid] = 200.33

Measured Concentration, -70°C for 14 days measured on O=C(/C=C/c1ccc(O)cc1)c1ccc(O)cc1O [isoliquiritigenin] = 8.62

Measured Concentration, -70°C for 14 days measured on COc1ccc(-c2coc3cc(O[C@@H]4O[C@H](CO)[C@@H](O)[C@H](O)[C@H]4O)ccc3c2=O)cc1 [ononin] = 18.51
